System: Leishmania major
TEST_PROTOCOL: Antileishmanial activity against promastigote stage of Leishmania major MHOM/IL/81/FEBNI infected Swiss albino mouse assessed as decrease in parasite number in cutaneous lesion at 20 umol administered 21 days post infection measured after 5 weeks by Giemsa staining
Type: functional, organism-based
Active and inactive are the calls of the source. No cut-off for these calls is given here.
MEASURED_PARAMETER: Activity

1) CC1=C(C(=O)N(CCO)CCO)C(c2cccc([N+](=O)[O-])c2)NC(=S)N1 (centres undefined)	inactive
2) CC1=C(C(=O)NNC(=O)c2ccccc2O)C(c2ccc(N(C)C)cc2)NC(=S)N1 (centres undefined)	inactive
3) COc1cc(C2NC(=S)NC(C)=C2C(=O)NNC(=O)c2ccccc2O)cc(OC)c1OC (centres undefined)	inactive
4) C/C=C/C(=O)NNC(=O)C1=C(C)NC(=S)NC1c1cccc([N+](=O)[O-])c1 (centres undefined)	Active
5) CC(=O)Nc1ccc(NC(=O)C2=C(C)NC(=O)NC2c2ccc(N(C)C)cc2)cc1 (centres undefined)	inactive
6) CC1=C(C(=O)NNC(=O)c2ccccc2O)C(c2ccc(N(C)C)cc2)NC(=O)N1 (centres undefined)	inactive
7) CC1=C(C(=O)NNC(=O)c2ccccc2O)C(c2cccc([N+](=O)[O-])c2)NC(=S)N1 (centres undefined)	Active
8) CC1=C(C(=O)N(CCCl)CCCl)C(c2cccc([N+](=O)[O-])c2)NC(=S)N1 (centres undefined)	Active

Could you now consider this next molecule?
Exercise: Give reported Activity value for CC1=C(C(=O)NNC(=O)c2ccccc2O)C(c2cccc([N+](=O)[O-])c2)NC(=O)N1 (centres undefined)
Solution: Active
